ASSAY_EXPLANATION: Individual predicted steady-state PK parameters (400 mg BID) derived from the final PopPK model
Format: in vivo
RUN_PARAMETERS: human, plasma, oral, 400 mg, 400 mg BID steady state; healthy volunteers, n = 133; read-out: AUC0–τ, geometric mean (%CV)
METRIC: AUC (µg·h/mL)
Number in µg·h/mL, nothing else.

I would be grateful if you could share the reported AUC for `CC(C)Nc1nc2cc(Cl)c(Cl)cc2n1[C@H]1O[C@@H](CO)[C@H](O)[C@@H]1O` .
101

----------
ASSAY_EXPLANATION: Individual predicted steady-state PK parameters (400 mg BID) derived from the final PopPK model
Assay type: in vivo
RUN_PARAMETERS: human, plasma, oral, 400 mg, 400 mg BID steady state; all participants, n = 667; read-out: Cmax.ss, geometric mean (%CV)
Method: The final model was used to derive individual estimates of steady-state AUC over one dosing interval (AUC0–τ), Cmax.ss, and minimum maribavir plasma concentration (Ctrough.ss) for a 400 mg BID dosing regimen for all participants in the PopPK analysis. […] The PK parameters AUC0–τ (linear up/log down trapezoidal rule), Cmax.ss, and Ctrough.ss were determined by non-compartmental methods. […]
METRIC: Cmax (ng/mL)
Give a bare numeral; the unit ng/mL is implied.

Any idea what its Cmax is? The molecule is `CC(C)Nc1nc2cc(Cl)c(Cl)cc2n1[C@H]1O[C@@H](CO)[C@H](O)[C@@H]1O`
17200
